# test summary: Plasma pharmacokinetics of BI 187004 after single oral doses (LC–MS/MS)
# assay conditions: male, human, plasma, po, 10 mg, Plasma concentration, individual subjects, 10 mg single oral; planned time 3 h
observed property: concentration at 3 h (nM)
Give bare numbers, in nM.

Measured concentration at 3 h, N#Cc1ccc2c(c1)[C@H]1CCCN(C(=O)c3ccc4[nH]cnc4c3)[C@H]1C2 [BI 187004] : 405

---

# test summary: Plasma pharmacokinetics of BI 187004 after single oral doses (LC–MS/MS)
# assay conditions: male, human, plasma, po, 20 mg, BI 187004 plasma concentrations, 20 mg single oral, planned time 8 h, Median
observed property: concentration at 8 h (nM)
Give bare numbers, in nM.

The recorded concentration at 8 h for entry N#Cc1ccc2c(c1)[C@H]1CCCN(C(=O)c3ccc4[nH]cnc4c3)[C@H]1C2 [BI 187004] equals 398
